Reference source: PubChem BioAssay (NCI)

Tested on: MCF7 breast
PROTOCOL_TEXT: NCI-60 one-dose screen, 48 h
EXPERIMENTAL_CONDITIONS: 10 µM unless noted
Compounds without any hit were thinned out: in the full panel of roughly 83,000, 20% have a hit. Calls of active or inactive are those of the source. How the source made its calls: active means growth percent below 10; inactive means the rest.
Hi! Could you answer with just one of these? active, inactive

[in] Test call, this compound: CCCCn1c2cc(OCc3cn(-c4ccc(Cl)cc4)nn3)ccc2c2ccnc(C)c21
[out] inactive

[in] Test call, this compound: C#C[C@@]1(O)[C@@H](CO)O[C@@H](n2cc(Cl)c3c(N)ncnc32)[C@@H]1O
[out] active

[in] Test call, this compound: COc1ccc(/C=C/C(=O)/C=C(/C=C/c2ccc(OC)c(OC)c2)OB(F)F)cc1OC
[out] inactive

[in] Test call, this compound: COc1cc(/C=C/C(=O)c2cccs2)ccc1OCc1ccc(Cl)nc1
[out] active

[in] Test call, this compound: Cc1ccc2nc3nc4ccc[nH]c4cc3c2c1
[out] active

[in] Test call, this compound: Cc1cc(NC(=O)CNc2nc(Oc3ccc(F)cc3)nc(-c3ccc(F)cc3)n2)ccc1Cl
[out] inactive

[in] Test call, this compound: CC1CCN(CCCCCOc2ccc3oc4cc(Cl)ccc4c(=O)c3c2)CC1
[out] inactive

[in] Test call, this compound: CCCCC(=O)Nc1c(C(=O)Nc2ccccc2)sc2nc3c(cc12)C(OC(=O)CCCC)CCC3 (stereo not drawn)
[out] inactive

[in] Test call, this compound: CCCCCCCCCCCCCC1=NCC[N+]1(CCO)Cc1ccccc1 (stereo not drawn)
[out] active

[in] Test call, this compound: C=C1C(=O)O[C@H]2[C@H]1CC/C(COC(=O)NCc1nc3ccccc3[nH]1)=C\CC[C@@]1(C)O[C@@H]21
[out] inactive

[in] Test call, this compound: CC1=C/C(=N\N=C2/C=C(C)CC(C)(C)C2)CC(C)(C)C1
[out] inactive

[in] Test call, this compound: C=C1C(=O)O[C@H]2[C@H]1CC/C(COC(=O)NCC(=O)Nc1ccc(OC)c(C(N)=O)c1O)=C\CC[C@@]1(C)O[C@@H]21
[out] inactive

[in] Test call, this compound: CCCCn1c(=O)c(/C=C/C(=O)/C=C/c2ccc(OC)cc2)cc2cc(Cl)ccc21
[out] inactive

[in] Test call, this compound: COc1cc(F)c(-c2nc3c(C)cccc3n2Cc2c(F)cccc2F)c(F)c1
[out] inactive

[in] Test call, this compound: CNC(=O)c1cc(Oc2ccc3c(c2)sc2nc(-c4ccc(NC(C)=O)cc4)cn23)ccn1
[out] inactive

[in] Test call, this compound: COc1ccc(-c2cc(C(=O)N3N=C(c4ccc(N)cc4)CC3c3ccc(OC)cc3)c3cc(OC)ccc3n2)cc1 (stereo not drawn)
[out] inactive

[in] Test call, this compound: CC(C)(C)CC(C)(C)Cc1ccc(OCCOCC[N+](C)(C)Cc2ccccc2)cc1
[out] inactive

[in] Test call, this compound: O=C1Nc2ccccc2C12C=C(c1ccccc1)Nc1c2c(-c2ccccc2)nn1-c1ccccc1 (stereo not drawn)
[out] inactive

[in] Test call, this compound: CSc1cccc(NC(=O)Nc2nc3c(C)cccc3s2)c1
[out] inactive

[in] Test call, this compound: O=c1c2ccccc2n(CC(O)CN2CCCC2)c2c(Br)cccc12 (stereo not drawn)
[out] inactive

[in] Test call, this compound: O=C(CCCC(=O)Nc1ccc(-n2nnc3cc(Cl)c(Cl)cc32)cc1)Nc1ccc(-n2nnc3cc(Cl)c(Cl)cc32)cc1
[out] inactive

[in] Test call, this compound: O=C(Nc1nc(-c2ccccc2Cl)cs1)c1cc(-c2ccc(Br)cc2)nc2ccccc12
[out] inactive

[in] Test call, this compound: COc1ccccc1C(=O)/C=C/c1cc2cccc(OC)c2[nH]c1=O
[out] inactive

[in] Test call, this compound: CCOC(=O)c1c(C)nc2c(c1N)CC(=O)N2CCc1ccccc1
[out] inactive

[in] Test call, this compound: c1ccc(-c2cn3ccnc3c(-c3ccc4c(c3)ncn4C3CCCCC3)n2)cc1
[out] inactive

[in] Test call, this compound: C#Cc1cccc(Nc2ncnc3ccc(NC(=O)c4ccccc4)cc23)c1
[out] inactive

[in] Test call, this compound: C=C1C(=O)O[C@H]2[C@H]1CC/C(COC(=O)c1cccnc1N)=C\CC[C@@]1(C)O[C@@H]21
[out] active

[in] Test call, this compound: CC1CCN(CCCCCOc2ccc3oc4ccccc4c(=O)c3c2)CC1
[out] inactive
